Recorded values, source patent US20110144007A1.

- experimentalSystem: T1, human recombinant GIP receptor (human, UniProt P48546 22-466)
- T1 construct: whole, on cells; Assayed as washed membrane preparations of CHO-K1 clonal cells expressing the receptor; also called hGIP receptor
- T1 sequence (looked up): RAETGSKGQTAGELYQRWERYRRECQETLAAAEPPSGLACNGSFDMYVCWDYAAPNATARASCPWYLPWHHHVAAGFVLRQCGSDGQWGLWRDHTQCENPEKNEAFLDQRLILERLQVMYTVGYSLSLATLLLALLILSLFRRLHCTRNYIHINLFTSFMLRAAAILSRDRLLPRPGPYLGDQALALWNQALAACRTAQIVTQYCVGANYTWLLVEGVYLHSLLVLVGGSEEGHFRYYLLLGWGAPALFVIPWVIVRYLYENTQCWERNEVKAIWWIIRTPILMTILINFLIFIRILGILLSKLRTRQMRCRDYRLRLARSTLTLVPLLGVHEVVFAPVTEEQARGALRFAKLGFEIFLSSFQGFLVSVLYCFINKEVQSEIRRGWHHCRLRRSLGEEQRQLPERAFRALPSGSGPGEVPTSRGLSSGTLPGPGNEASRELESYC
- procedureText: displacement of [125I]GIP from membranes of CHO-K1 cells expressing human recombinant GIP receptor
Non-standard residues stand in square brackets, D forms with d. No end group written: not given here. Ac6c = NC1(C(=O)O)CCCCC1
Record form. Attribute: Ki. Fill in for each entry.
Write the number in nM without appending the unit.

query: Fill in Ki for record YAEGTF[Ac6c]SDYSIAMDKIHQQDFVNWLLAQKGKKNDWKHNI[Ac6c]Q-OH (Synthetic analogue of human GIP) [(A6c^7, 41)hGIP(1-42)-OH]
result: 8.79

query: Fill in Ki for record YAEGTFISDYXIAMDKIHQQDFVNWLLAQKGCKNDWKHNIXQ (A5c at 11 and 41; C-terminal amide, Synthetic analogue of human GIP with Cys at position 32) [(A5c^11, 41, Cys^32)hGIP(1-42)-NH2]
result: 0.9

query: Fill in Ki for record YAEGTFISDYXIAMDKIHQQDFVNWLLAQKGKKNDWKHNITQN (A5c at 11; C-terminal free acid, Synthetic analogue of human GIP with an added Asn at position 43) [(A5c^11, Asn^43)hGIP(1-43)-OH]
result: 0.21

query: Fill in Ki for record YAEGTFISDYXIAMDKIHQQDFVNWLLAQK (A5c at 11; C-terminal amide, Synthetic truncated analogue of human GIP) [(A5c^11)hGIP(1-30)-NH2]
result: 0.82
